Hello, the source for this data is the supplement of paper PMC8975748, in case you need it.

test system: Saccharomyces cerevisiae BY4741 SeMeCo community; assay: z-score of subpopulation abundance vs DMSO median, subpopulation auxotrophic for LUM; higher = larger share of this subpopulation than in DMSO controls; conditions: 10 µM; 24 h; SM minimal medium; subpopulation (auxotrophy): LUM
Counter-ions that a name gives are not always drawn.
Exercise: state measured z-score of subpopulation abundance for each of the compounds provided.
Respond with the number and no other words.

Challenge: Given the compound C[N+]1(C)[C@@H]2C[C@@H](OC(=O)[C@H](CO)c3ccccc3)C[C@H]1[C@@H]1O[C@@H]12 [Methscopolamine] , write its reported z-score of subpopulation abundance.
Response given: 0.43

Challenge: Answer with the recorded z-score of subpopulation abundance of NCC(O)c1ccc(O)cc1 (racemic) [(+,-)-Octopamine HCl] only.
Response given: 0.58

Challenge: Answer with the recorded z-score of subpopulation abundance of O=[N+]([O-])C(Br)(CO)CO [Bronopol] only.
Response given: -0.07

Challenge: Fill in reported z-score of subpopulation abundance for this entry: C[C@H]1O[C@H](O[C@H]2[C@H](O)[C@@H](O)[C@@H](O)[C@H](O)[C@@H]2O)[C@@H](N)C[C@@H]1NC(=N)C(=O)O [Kasugamycin hydrochloride]
Response given: 0.34

Challenge: Tell us which z-score of subpopulation abundance value is on record for N[C@@H]1C[C@H]1c1ccccc1 [Tranylcypromine (2-PCPA) HCl]
Response given: -0.84

Challenge: Please report z-score of subpopulation abundance for the following compound: C[N+]12CCC(CC1)C(OC(=O)C(O)(c1ccccc1)c1ccccc1)C2 (centres undefined) [Clidinium Bromide]
Response given: -0.9

Challenge: In one line, give reported z-score of subpopulation abundance of the entry CN1[C@@H]2C[C@@H](OC(=O)[C@H](CO)c3ccccc3)C[C@H]1[C@@H]1O[C@@H]12 [Scopolamine HBr trihydrate] .
Response given: -0.33

Challenge: State its z-score of subpopulation abundance: C[CH2][Hg][S]c1ccccc1C(=O)[O-].[Na+] [Thimerosal]
Response given: 21

Challenge: Determine from records and report z-score of subpopulation abundance for CN(C)C(=O)Oc1ccc[n+](C)c1 [Pyridostigmine Bromide]
Response given: -0.35
